IC50 for the protein given by its sequence - collated from the literature.
Target protein (sequence): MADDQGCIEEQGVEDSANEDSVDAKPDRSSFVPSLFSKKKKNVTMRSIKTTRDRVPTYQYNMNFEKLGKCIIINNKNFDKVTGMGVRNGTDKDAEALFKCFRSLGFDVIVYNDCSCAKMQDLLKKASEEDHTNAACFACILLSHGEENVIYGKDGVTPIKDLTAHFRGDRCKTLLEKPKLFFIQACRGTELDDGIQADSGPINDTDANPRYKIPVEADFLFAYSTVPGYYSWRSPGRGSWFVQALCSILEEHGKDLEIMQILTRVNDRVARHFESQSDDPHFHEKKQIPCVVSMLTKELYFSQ
observed_property: IC50 (nM)

Example results:
>>> print(df.to_string())
                                   molecule  numeric_value
0  N#CC(C#N)=C1C(=O)N(Cc2ccc(OCCF)cc2)c2ccc(S(=O)(=O)N3CCC[C@H]3COc3cccnc3)cc21           26.5
1  CN1C(=O)C(=O)c2cc(S(=O)(=O)N3CCC[C@H]3COc3ccccc3)ccc21            190
2  COC[C@@H]1CCCN1S(=O)(=O)c1ccc2c(c1)C(=O)C(=O)N2Cc1ccc(OC)cc1              4

A. O=C(O)CCC(=O)Nc1ccc2c(c1)C(=O)C(=O)NC2=O
B. O=C1C(=O)N(Cc2cn(CCF)nn2)c2ccc(S(=O)(=O)N3CC[C@H]3COc3ccccc3)cc21
Prompt: Pick one: A or B . Which one has the lower reported IC50? The response must carry the label of the picked entry.
Completion: B
(B: 18 nM, A: 136 nM)

P. CCOc1ccc(OCC(=O)O)cc1CC(=O)N[C@H](C(=O)N[C@@H](CC(=O)O)C(=O)CSCc1c(F)cccc1Cl)C(C)C
Q. CC(C)[C@H](NC(=O)OCc1ccccc1)C(=O)NC(CC(=O)O)C(=O)CF (some centres undefined)
Prompt: Higher IC50 between P and Q ? In your reply, give the label of the chosen option.
Completion: P
